Here the recorded TGI is given for each entry.
System: RPMI-8226 leukemia
assay protocol: NCI tumour cell line growth inhibition, 48 h
value type: TGI

INSERT INTO assay_data (molecule, obs_value) VALUES
  ('C/C(=C\c1cc(C(F)(F)F)n(-c2ccc(N)cc2)n1)[C@@H]1C[C@@H]2O[C@]2(C)CCC[C@H](C)[C@H](O)[C@@H](C)C(=O)C(C)(C)[C@@H](O)CC(=O)O1', '> 11.1 µM'),
  ('CCCCCCCCCC(=O)OCC1OC(n2cc(F)c(=O)[nH]c2=O)C(NC(=O)OCc2ccccc2)C(OC(=O)CCCCCCCCC)C1O (stereo not drawn)', '65.2 µM'),
  ('CC1CN(c2cc3c(cc2F)c(=O)c(C(=O)O)cn3-c2ccc(F)cn2)CC(C)N1 (stereo not drawn)', '> 100 µM');

---

Here the recorded TGI is given for each entry.
Test system: RXF 393 renal
assay protocol: NCI tumour cell line growth inhibition, 48 h
value type: TGI

INSERT INTO results (compound, value_type, obs_value) VALUES
  ('CC(=O)OC[C@@]12Cc3ccc(C)c(O)c3[C@]1(C)[C@@H](OC(C)=O)[C@]1(O)[C@H]([C@@H](OC(=O)c3ccccc3)[C@@H](C)[C@H]1OC(C)=O)[C@H]2OC(C)=O', 'TGI', '> 50 µM'),
  ('N#Cc1c(N)nc(N2CCOCC2)c(C#N)c1-c1ccccn1', 'TGI', '> 100 µM'),
  ('Cc1ccnc2[nH]c(-c3ccc(F)cc3)cc(=O)c12', 'TGI', '> 100 µM'),
  ('CN(C)CCNC(=O)Cn1cnc2cccc([N+](=O)[O-])c2c1=O', 'TGI', '> 100 µM');

---

Tested on: HL-60(TB) leukemia
assay protocol: NCI tumour cell line growth inhibition, 48 h
Where a SMILES comes first, the peptide text is derived from it. [ ]: non-standard residue; d: D form. ξ: configuration not given here. ξLac(3-iPr) = CC(C)CC(O)C(=O)O; NMeV = CN[CH](C(=O)O)C(C)C; NMeA = CN[CH](C)C(=O)O; βAla = NCCC(=O)O
value type: log10(TGI) (log10 of the value in µM)

INSERT INTO measurements (compound, subject_of_test, obs_value) VALUES
  ('CC(=O)c1ccc2c(c1)CC1(C2)Cc2ccc3c(c2C1=O)CCC3 (stereo unspecified)', 'HL-60(TB) leukemia', 1.68),
  ('C#Cc1cc(Br)c(OC(=O)C(C)(C)C)c(-c2cc(C#C)cc(Br)c2OC(=O)C(C)(C)C)c1', 'HL-60(TB) leukemia', 1.48),
  ('CCOC(=O)c1cnc2c(ccc3ncccc32)c1NCCCN(CC)CC', 'HL-60(TB) leukemia', 1.58),
  ('CCN(CC)Cc1ccc(C(=S)Nc2ccc(C)cc2)s1', 'HL-60(TB) leukemia', 1.43),
  ('CCOC(=O)c1c(C)n([O-])c2cc(Cl)c(Cl)cc2[n+]1=O', 'HL-60(TB) leukemia', 1.39),
  ('CCC(C)C1NC(=O)C2CCCN2C(=O)C(CC(C)C)OC(=O)CCNC(=O)C(C)N(C)C(=O)C(C(C)C)N(C)C1=O (stereo unspecified) (cyclo([ξLac(3-iPr)]PI[NMeV][NMeA][βAla]); configuration not given here)', 'HL-60(TB) leukemia', 1.26),
  ('COc1cc(/C=C\c2nnc(/C=C\c3ccc(O)c(OC)c3)s2)ccc1O', 'HL-60(TB) leukemia', 0.74),
  ('C/C(=N\NC(=S)SCc1ccccc1)c1ccccn1', 'HL-60(TB) leukemia', 0.02),
  ('CC(C)Oc1cccc(N2C(=NCCc3c[nH]c4ccccc34)Nc3ccncc3S2(=O)=O)c1', 'HL-60(TB) leukemia', 1.82),
  ('O=C1C=CC(=O)c2c(O)c(Br)c(Br)c(O)c21', 'HL-60(TB) leukemia', 0.34),
  ('C=C(CO)[C@@H]1CC[C@]2(COC3CCCCO3)CC[C@]3(C)[C@H](CC[C@@H]4[C@@]5(C)C=C(C=O)C(=O)C(C)(C)[C@@H]5CC[C@]43C)[C@@H]12 (stereo partly specified)', 'HL-60(TB) leukemia', 0.00);

---

Test system: EKVX NSCLC
assay protocol: NCI tumour cell line growth inhibition, 48 h
value type: TGI

INSERT INTO measurements (compound, value_type, obs_value) VALUES
  ('O=c1[nH]c(=O)n(C2CC(O)C(CO)O2)c2nc3ccc4cc5ccccc5cc4c3nc12 (stereo not drawn)', 'TGI', '> 100 µM'),
  ('Oc1c(Br)cc(/C=C/c2cccc(/C=C/c3cc(Br)c(O)c(Br)c3)n2)cc1Br', 'TGI', '34 µM'),
  ('Clc1ccc(C[P+]2(c3ccccc3)CCCCC2)cc1', 'TGI', '> 100 µM');

---

Tested on: KM12 colon
assay protocol: NCI tumour cell line growth inhibition, 48 h
value type: TGI

INSERT INTO measurements (compound, subject_of_test, obs_value) VALUES
  ('CC(=O)O[C@H]1[C@@H]2OC(=O)C(CSc3ccccc3)[C@@H]2C[C@H]2O[C@]2(C)CC/C=C(\C)CCC[C@@H]1C (some centres not stated)', 'KM12 colon', '14 µM'),
  ('CN1C(=O)C(O)CC1c1ccccc1C(F)(F)F (configuration not stated)', 'KM12 colon', '> 100 µM'),
  ('O=C(O/N=C1/CCC/C1=C\c1ccccc1)c1ccc(Cl)c(Cl)c1', 'KM12 colon', '> 100 µM'),
  ('ONC1=Nc2ccccc2C(=S)N2CSCC12 (configuration not stated)', 'KM12 colon', '> 100 µM'),
  ('COC(=O)c1cc2c3ccccc3[nH]c2c2sccc12', 'KM12 colon', '87.2 µM'),
  ('C=C(C(=C)N1N=NC2C3CCC(C3)C21)N1N=NC2C3CCC(C3)C21 (configuration not stated)', 'KM12 colon', '> 100 µM'),
  ('CCOC(=O)c1cc(-c2ccccc2)[nH]c1N/N=C/c1ccc(Cl)cc1', 'KM12 colon', '> 100 µM');

---

Tested on: SK-OV-3 ovarian
assay protocol: NCI tumour cell line growth inhibition, 48 h
value type: TGI

INSERT INTO assay_data (compound, value_type, obs_value) VALUES
  ('COC(=O)C(C(=O)C(=O)Nc1cccc([N+](=O)[O-])c1)c1nc2ccc([N+](=O)[O-])cc2[nH]c1=O (stereo unspecified)', 'TGI', '> 100 µM'),
  ('O=C1C2C(C(=O)N1c1ccccc1)C1([N+](=O)[O-])C=C3c4ccccc4N(C(=O)c4ccccc4)C32C2C(=O)N(c3ccccc3)C(=O)C21 (stereo unspecified)', 'TGI', '> 100 µM'),
  ('CCC(=O)Nc1ccc(C)c(-c2ccc(C(=O)NCC3CC3)cc2)c1', 'TGI', '> 25 µM'),
  ('O=NNc1ccc(Sc2ccc(NN=O)cn2)nc1', 'TGI', '> 100 µM'),
  ('Cc1[nH]c(=O)[nH]c1C(=O)c1ccc(-n2ccnc2)cc1', 'TGI', '> 100 µM'),
  ('COc1ccc2c3c(c(C(=O)c4ccccc4)oc13)CCC2', 'TGI', '> 100 µM');

---

System: HOP-18 NSCLC
assay protocol: NCI tumour cell line growth inhibition, 48 h
value type: TGI (µM)

INSERT INTO assay_data (molecule, subject_of_test, unit_abbreviation, value_comparator, obs_value) VALUES
  ('COc1ccc(/C=C2\CCC(CCN(C)C)(C3=CCCC3)C2=O)cc1Br (centres undefined)', 'HOP-18 NSCLC', 'µM', '=', 25.2),
  ('NC1=NN(c2ccccc2)C(=O)C1C(=O)C(=O)Nc1nccs1 (centres undefined)', 'HOP-18 NSCLC', 'µM', '>', 100),
  ('C[N+](C)(C)CC(=O)N/N=C(\C(=O)NC1=C(Cl)C(=O)c2ccccc2C1=O)C(C#N)c1nc(-c2ccc([N+](=O)[O-])cc2)cs1 (centres undefined)', 'HOP-18 NSCLC', 'µM', '=', 18),
  ('C=C1C(OC(=O)/C=C/c2ccccc2)CC(OC(C)=O)C2(C)C1CC1CC(OC(C)=O)C(C)=C(C(OC(C)=O)C2OC(C)=O)C1(C)C (centres undefined)', 'HOP-18 NSCLC', 'µM', '>', 100);

---

Test system: UACC-257 melanoma
assay protocol: NCI tumour cell line growth inhibition, 48 h
value type: TGI

INSERT INTO results (compound, obs_value) VALUES
  ('O=C(N/N=C/c1ccc([N+](=O)[O-])cc1)Nc1ccc(Br)cc1', '> 100 µM'),
  ('O=C(NO)[C@@H](Cc1ccccc1)NS(=O)(=O)c1ccc(-c2ccccc2)cc1', '> 25 µM'),
  ('Nc1ccc(C23CC4CC(C2)CC(c2ccc(N)cc2)(C4)C3)cc1', '> 100 µM'),
  ('COC(=O)C(C(=O)C(=O)Nc1cccc([N+](=O)[O-])c1)c1nc2ccc([N+](=O)[O-])cc2[nH]c1=O (configuration not stated)', '> 100 µM'),
  ('CC1=C(C(=O)Nc2cc(Cl)c3[nH]ncc3c2)C(c2ccc(C(F)(F)F)cc2)CC(=O)N1 (configuration not stated)', '> 25 µM'),
  ('COC(=O)C1Cc2ccc3c(c2C1=O)CCCC3 (configuration not stated)', '> 100 µM'),
  ('COc1cc2c(cc1OC)C(=O)C1(C2)[C@H](c2ccccc2)C2C(=O)c3cc(OC)c(OC)cc3C2[C@H]1c1ccccc1 (some centres not stated)', '> 100 µM'),
  ('CCOC(=O)C(CC/C=C\c1ccccc1)N1CCC[C@H]1C(=O)OC (some centres not stated)', '> 100 µM'),
  ('CC1CN(c2cc3c(cc2F)c(=O)c(C(=O)O)cn3-c2ccc(F)cn2)CC(C)N1 (configuration not stated)', '> 100 µM'),
  ('COc1cccc(Nc2nc(N)nc(N)c2N)c1', '> 100 µM'),
  ('COC(=O)[C@H]1COC(=O)N1', '> 100 µM'),
  ('O=S(=O)(SC1=NCCN1)c1cccc2ccccc12', '> 100 µM');
